Listed here: items and their measured MIC.
Test system: Staphylococcus aureus
procedure_summary: Minimum inhibitory concentration required against Staphylococcus aureus SA 1199-3, laboratory-derived mutant of SA 1199 that inducibly overexpresses norA, no gyrase or topoisomerase IV mutations
Format: functional
metric_name: MIC

>>> value_measured("O=C(O)c1cn(C2CC2)c2cc(N3CCN(/C=C/CN4CCN(c5cc6c(cc5F)c(=O)c(C(=O)O)cn6C5CC5)CC4)CC3)c(F)cc2c1=O")
0.06
>>> value_measured("O=C(O)c1cn(C2CC2)c2cc(N3CCN(/C=C/CN4CCNCC4)CC3)c(F)cc2c1=O")
2
>>> value_measured("O=C(O)c1cn(C2CC2)c2cc(N3CCN(Cc4ccc(CN5CCN(c6cc7c(cc6F)c(=O)ccn7C6CC6)CC5)cc4)CC3)c(F)cc2c1=O")
0.5
>>> value_measured("CN1CCN(c2cc3c(cc2F)c(=O)c(C(=O)O)cn3C2CC2)CC1")
1

// data source = ChEMBL document CHEMBL1136072
